Tested on: Fusarium oxysporum
Test: Antifungal activity against Fusarium oxysporum assessed as inhibition of mycelia elongation rate at 50 ppm after 48 hrs relative to control
Assay type: functional
Given measured inhibition at 50 ppm, output Criterion met if it is greater than or equal to 40% and Criterion not met if not.

COc1cccc(CSc2nnc(CSc3nc4nc(C)cc(C)n4n3)s2)c1 = Criterion met
Cc1cc(C)n2nc(SCc3nnc(SCc4cccc(Br)c4)s3)nc2n1 = Criterion met
Cc1cc(C)n2nc(SCc3nnc(SCc4cccc(Cl)c4)s3)nc2n1 = Criterion met
Cc1ccc(CSc2nnc(CSc3nc4nc(C)cc(C)n4n3)s2)cc1 = Criterion met
Cc1cccc(CSc2nnc(CSc3nc4nc(C)cc(C)n4n3)s2)c1 = Criterion met
Cc1cc(C)n2nc(SCc3nnc(SCc4ccc(F)cc4F)s3)nc2n1 = Criterion met
OCC1=C[C@H](N[C@H]2C[C@H](CO)[C@@H](O[C@@H]3O[C@H](CO)[C@@H](O)[C@H](O)[C@H]3O)[C@H](O)[C@H]2O)[C@H](O)[C@@H](O)[C@@H]1O = Criterion not met
Cc1cc(C)n2nc(SCc3nnc(SCc4cccc([N+](=O)[O-])c4)s3)nc2n1 = Criterion not met

Say whether CC(C)(C)C(=O)C(Oc1ccc(Cl)cc1)n1cncn1 (stereo not drawn) shows inhibition at 50 ppm of 40% or more.
Criterion not met

Please check the record `Cc1cc(C)n2nc(SCc3nnc(SCc4cccc(F)c4)s3)nc2n1` and state if its inhibition at 50 ppm is at or above 40%.
Criterion met

Say whether `COC(=O)Nc1nc2ccccc2[nH]1` shows inhibition at 50 ppm of 40% or more.
Criterion met

Can `Cc1cc(C)n2nc(SCc3nnc(SCc4cc(F)cc(F)c4)s3)nc2n1` be said to have inhibition at 50 ppm at or above 40%?
Criterion not met

Hi team, for `Cc1cc(C)n2nc(SCc3nnc(SCc4ccc(Br)cc4)s3)nc2n1` , is the recorded inhibition at 50 ppm at or above 40%?
Criterion met

Hello, I need to know if `Cc1cc(C)n2nc(SCc3nnc(SCc4ccc(F)cc4)s3)nc2n1` has measured inhibition at 50 ppm not below 40%. Thanks!
Criterion met

Please indicate if the recorded inhibition at 50 ppm for `C=Cc1ccc(CSc2nnc(CSc3nc4nc(C)cc(C)n4n3)s2)cc1` meets or exceeds 40%.
Criterion met

Check the entry `Cc1cc(C)n2nc(SCc3nnc(SCc4ccc(Br)cc4F)s3)nc2n1` : does inhibition at 50 ppm equal or exceed 40%?
Criterion not met

Exam item: decide whether the reported inhibition at 50 ppm for `Cc1cc(C)n2nc(SCc3nnc(SCc4c(F)cccc4F)s3)nc2n1` is at least 40%.
Criterion not met

Would you say `Cc1cc(C)n2nc(SCc3nnc(SCc4ccccc4C)s3)nc2n1` shows inhibition at 50 ppm at minimum 40%?
Criterion met

Entry `Cc1cc(C)n2nc(SCc3nnc(SCc4ccccc4F)s3)nc2n1` : is its inhibition at 50 ppm no less than 40%?
Criterion met

Does inhibition at 50 ppm meet or surpass 40% for `Cc1ccc(CSc2nnc(CSc3nc4nc(C)cc(C)n4n3)s2)c([N+](=O)[O-])c1` ?
Criterion met

* * *

In this section, each of the molecules is paired with its reported inhibition.
Assay: Antifungal activity against Physalospora pyricola assessed as inhibition of mycelia elongation rate at 50 ppm after 48 hrs relative to control
Format: functional
Conditions: Botryosphaeria berengeriana
State the answer as a number, implicitly in %.

Some entries whose results are on file:
Cc1cc(C)n2nc(SCc3nnc(SCc4ccc(C)c([N+](=O)[O-])c4)s3)nc2n1 = 68
Cc1cc(C)n2nc(SCc3nnc(SCc4ccccc4Br)s3)nc2n1 = 75
Cc1cc(C)n2nc(SCc3nnc(SCc4ccc(F)cc4F)s3)nc2n1 = 86
Cc1cc(C)n2nc(SCc3nnc(SCc4ccc(F)cc4)s3)nc2n1 = 79
Cc1cc(C)n2nc(SCc3nnc(SCc4cccc(Cl)c4)s3)nc2n1 = 66
Cc1cc(C)n2nc(SCc3nnc(SCc4cc(F)cc(F)c4)s3)nc2n1 = 68

// next item, inhibition requested
Given `Cc1ccc(CSc2nnc(CSc3nc4nc(C)cc(C)n4n3)s2)c([N+](=O)[O-])c1` , state its recorded inhibition.
78

* * *

Experiment: Antifungal activity against Physalospora pyricola assessed as inhibition of mycelia elongation rate at 50 ppm after 48 hrs relative to control
Type: functional
Details: Botryosphaeria berengeriana
Form field: inhibition (one value per entry).
Answer in %, number only, no unit symbol.

OCC1=C[C@H](N[C@H]2C[C@H](CO)[C@@H](O[C@@H]3O[C@H](CO)[C@@H](O)[C@H](O)[C@H]3O)[C@H](O)[C@H]2O)[C@H](O)[C@@H](O)[C@@H]1O [VALIDAMYCIN] = 47
Cc1cc(C)n2nc(SCc3nnc(SCc4ccccc4C)s3)nc2n1 = 73

Suppose we examine the molecule `COc1cccc(CSc2nnc(CSc3nc4nc(C)cc(C)n4n3)s2)c1` ; what inhibition value has been reported?
69

* * *

System: Rhizoctonia solani
Experiment: Antifungal activity against Rhizoctonia solani assessed as inhibition of mycelia elongation rate at 50 ppm after 48 hrs relative to control
Assay type: functional
Reported Property: inhibition at 50 ppm
Quick note: number first, unit second.

Worked cases, inhibition at 50 ppm given:
Cc1ccc(CSc2nnc(CSc3nc4nc(C)cc(C)n4n3)s2)cc1 = 57%
CC(C)(C)C(=O)C(Oc1ccc(Cl)cc1)n1cncn1 (centres undefined) = 40%
Cc1cc(C)n2nc(SCc3nnc(SCc4ccccc4Br)s3)nc2n1 = 63%
Cc1cccc(CSc2nnc(CSc3nc4nc(C)cc(C)n4n3)s2)c1 = 54%
Cc1cc(C)n2nc(SCc3nnc(SCc4ccc(Br)cc4F)s3)nc2n1 = 75%

May I ask what inhibition at 50 ppm has been recorded for `OCC1=C[C@H](N[C@H]2C[C@H](CO)[C@@H](O[C@@H]3O[C@H](CO)[C@@H](O)[C@H](O)[C@H]3O)[C@H](O)[C@H]2O)[C@H](O)[C@@H](O)[C@@H]1O` ?
75%

Reported inhibition at 50 ppm, molecule `COC(=O)Nc1nc2ccccc2[nH]1` : ____
62%

Record request: inhibition at 50 ppm value, item `Cc1cc(C)n2nc(SCc3nnc(SCc4ccc(Br)cc4)s3)nc2n1`
51%

Field request: inhibition at 50 ppm | item: `COc1cccc(CSc2nnc(CSc3nc4nc(C)cc(C)n4n3)s2)c1`
49%

* * *

Test system: Rhizoctonia solani
Assay: Antifungal activity against Rhizoctonia solani assessed as inhibition of mycelia elongation rate at 50 ppm after 48 hrs relative to control
Format: functional
Examples of molecules with documented inhibition at 50 ppm follow.
Write the value in % as a bare number.

Solved cases (5 shown):
Cc1cc(C)n2nc(SCc3nnc(SCc4cccc(Cl)c4)s3)nc2n1 = 53
Cc1cc(C)n2nc(SCc3nnc(SCc4cc(F)cc(F)c4)s3)nc2n1 = 75
Cc1cc(C)n2nc(SCc3nnc(SCc4ccccc4C)s3)nc2n1 = 55
Cc1cc(C)n2nc(SCc3nnc(SCc4ccccc4Cl)s3)nc2n1 = 61
Cc1cc(C)n2nc(SCc3nnc(SCc4cccc([N+](=O)[O-])c4)s3)nc2n1 = 64

Enter reported inhibition at 50 ppm observed with Rhizoctonia solani for `Cc1cc(C)n2nc(SCc3nnc(SCc4ccc(F)cc4F)s3)nc2n1`
79

Request body: readout inhibition at 50 ppm, system Rhizoctonia solani, query `Cc1ccc(CSc2nnc(CSc3nc4nc(C)cc(C)n4n3)s2)c([N+](=O)[O-])c1` . Return the value.
80

Form: Entry = `Cc1cc(C)n2nc(SCc3nnc(SCc4cccc(Br)c4)s3)nc2n1` | System = Rhizoctonia solani | inhibition at 50 ppm = ____
67

Recorded inhibition at 50 ppm for `Cc1cc(C)n2nc(SCc3nnc(SCc4cccc(F)c4)s3)nc2n1` with Rhizoctonia solani, please?
60

Rhizoctonia solani / inhibition at 50 ppm / `Cc1cc(C)n2nc(SCc3nnc(SCc4ccc(C)c([N+](=O)[O-])c4)s3)nc2n1` : value?
89

# get_value(readout= inhibition at 50 ppm, system= Rhizoctonia solani) for `C=Cc1ccc(CSc2nnc(CSc3nc4nc(C)cc(C)n4n3)s2)cc1`
50

Give recorded inhibition at 50 ppm with Rhizoctonia solani for the following molecule: `Cc1cc(C)n2nc(SCc3nnc(SCc4ccccc4F)s3)nc2n1`
68

Given the entry `Cc1cc(C)n2nc(SCc3nnc(SCc4ccc(F)cc4)s3)nc2n1` , what inhibition at 50 ppm was observed with Rhizoctonia solani?
55

For the record `Cc1cc(C)n2nc(SCc3nnc(SCc4c(F)cccc4F)s3)nc2n1` , what value of inhibition at 50 ppm is listed for Rhizoctonia solani?
83

* * *

Tested on: Bacillus spizizenii
Assay: Antibacterial activity against Bacillus subtilis ATCC 6633 assessed as growth inhibition after 24 hrs by two-fold serial dilution method
Assay type: functional
Conditions: ATCC 6633, 24 h
Reported Property: MIC (µg/mL)
The reply should be a number in µg/mL, with the unit left off.

Sample answers from the record:
C=Cc1ccc(CSc2nnc(CSc3nc4nc(C)cc(C)n4n3)s2)cc1 = 50
NC[C@H]1O[C@H](O[C@H]2[C@H](O)[C@@H](O[C@H]3O[C@H](CO)[C@@H](O)[C@H](N)[C@H]3O)[C@H](N)C[C@@H]2N)[C@H](O)[C@@H](O)[C@@H]1O = 0.78
Cc1cc(C)n2nc(SCc3nnc(SCc4cc(F)cc(F)c4)s3)nc2n1 = 50
Cc1cc(C)n2nc(SCc3nnc(SCc4ccc(Br)cc4F)s3)nc2n1 = 50
Cc1cc(C)n2nc(SCc3nnc(SCc4ccc(F)cc4)s3)nc2n1 = 50
Cc1cc(C)n2nc(SCc3nnc(SCc4c(F)cccc4F)s3)nc2n1 = 50

Continue with the next compound.
// query MIC value for entry `Cc1cc(C)n2nc(SCc3nnc(SCc4cccc([N+](=O)[O-])c4)s3)nc2n1`
25
